Record type: MIC measurement. Applies to: Mycobacterium aurum DSM 43999 (ATCC 23366)

molecule | MIC
CC(=O)Nc1ccc(S(=O)(=O)Nc2cncc(Cl)n2)cc1 | ≥ 500 µg/mL
COc1ccc(S(=O)(=O)Nc2cncc(Cl)n2)cc1 | ≥ 500 µg/mL
Cc1cc(C)c(C)c(S(=O)(=O)Nc2cnccn2)c1C [Compound 10a] | ≥ 500 µg/mL
O=S(=O)(Nc1cnccn1)c1ccc2ccccc2c1 [Compound 13a] | ≥ 500 µg/mL
O=[N+]([O-])c1ccc(S(=O)(=O)Nc2cnccn2)cc1 | > 500 µg/mL
NC(=O)c1cnccn1 [PZA, reference compound] | ≥ 500 µg/mL
Cc1cc(C)cc(S(=O)(=O)Nc2cnccn2)c1 | 250 µg/mL
CO[C@H]1/C=C/O[C@@]2(C)Oc3c(C)c(O)c4c(O)c(c(/C=N/N5CCN(C)CC5)c(O)c4c3C2=O)NC(=O)/C(C)=C\C=C\[C@H](C)[C@H](O)[C@@H](C)[C@@H](O)[C@@H](C)[C@H](OC(C)=O)[C@@H]1C [RFM, reference compound] | 0.78 to 1.56 µg/mL
Nc1ccc(S(=O)(=O)Nc2cnc3ccccc3n2)cc1 [Sulfaquinoxaline, reference compound] | 250 µg/mL
Cc1cc(NS(=O)(=O)c2ccc(N)cc2)no1 [Sulfamethoxazole, reference compound] | ≥ 500 µg/mL
